assay: Bioavailability in male Sprague-Dawley rat at 20 mg/kg, ip measured after 24 hrs by LC-MS/MS analysis; type: ADME, organism-based; settings: in vivo
PROPERTY_MEASURED: bioavailability

// Input: CC(C)(C)c1ccc(NC(=O)NCCCN(CCCN2CCOCC2)CC2(O)CCN(c3nc(Cl)nc4sccc34)C2)cc1 (stereo unspecified) . Output its bioavailability only.
92.2%

====

assay: Half-life in male Sprague-Dawley rat at 20 mg/kg, ip measured after 24 hrs by LC-MS/MS analysis; type: ADME, organism-based; details: in vivo
PROPERTY_MEASURED: half-life (h)
Kindly provide the numeric value in h only, without the unit symbol.

Specify measured half-life for CC(C)(C)c1ccc(NC(=O)NCCCN(CCCN2CCOCC2)CC2(O)CCN(c3nc(Cl)nc4sccc34)C2)cc1 (stereo unspecified) .
6.06

====

tested on: NCI-H460; assay: Antiproliferative activity against human NCI-H460 cells harboring wildtype DOT1L (unknown origin) (1 to 416 residues) assessed as inhibition of cell proliferation incubated for 72 hrs by CCK-8 assay; assay type: functional, cell-based; settings: NCI-H460, 72 h
PROPERTY_MEASURED: pIC50
Would you please state pIC50, meaning minus log10 of the concentration in mol/L, as a bare number?

>>> result_number("CC(C)N(CCCNC(=O)Nc1ccc(C(C)(C)C)cc1)CC1(O)CCN(c2ncnc3[nH]ccc23)C1 (stereo unspecified)")
4.26

Query pIC50 for CC(C)(C)c1ccc(NC(=O)NCCCN(CCC(=O)N2CCOCC2)CC2(O)CCN(c3nc(Cl)nc4[nH]cnc34)C2)cc1 (stereo unspecified)
4.27

Fill in reported pIC50 for this entry: CC(C)(C)c1ccc(NC(=O)NCCCN(CCC(=O)N2CCSCC2)CC2(O)CCN(c3nc(Cl)nc4[nH]cnc34)C2)cc1 (stereo unspecified)
4.19

Fill in reported pIC50 for this entry: COC(=O)CCN(CCCNC(=O)Nc1ccc(C(C)(C)C)cc1)CC1(O)CCN(c2nc(Cl)nc3[nH]cnc23)C1 (stereo unspecified)
4.14

Specify reported pIC50 for the compound shown: CN(CCCNC(=O)Nc1ccc(C(C)(C)C)cc1)CC1(O)CCN(c2nc(Cl)nc3[nH]ncc23)C1 (stereo unspecified)
5.07

Give the reported pIC50 for this compound. COC(=O)CCN(CCCNC(=O)Nc1ccc(C(C)(C)C)cc1)CC1(O)CCN(c2nc(Cl)nc3[nH]ncc23)C1 (stereo unspecified)
4.21

Quickly give me recorded pIC50 for CC(C)(C)c1ccc(NC(=O)NCCCN(CCCN2CCOCC2)CC2(O)CCN(c3ncnc4[nH]cc(Br)c34)C2)cc1 (stereo unspecified)
4.34

Report pIC50 for CN(CCCNC(=O)Nc1ccc(C(C)(C)C)cc1)CC1(O)CCN(c2nc(Cl)nc3ccsc23)C1 (stereo unspecified)
4.56

Respond only with pIC50 recorded for CC(C)N(CCCNC(=O)Nc1ccc(C(C)(C)C)cc1)CC1(O)CCN(c2ncnc3[nH]cc(Br)c23)C1 (stereo unspecified)
4.45

Give the value of pIC50 reported for the following: CC(C)(C)c1ccc(NC(=O)NCCCN(CCCN2CCOCC2)CC2(O)CCN(c3nc(Cl)nc4sccc34)C2)cc1 (stereo unspecified)
4.70

Tell us which pIC50 value is on record for CC(C)(C)c1ccc(NC(=O)NCCCN(CCCN2CCOCC2)CC2(O)CCN(c3nc(Cl)nc4[nH]cnc34)C2)cc1 (stereo unspecified)
4.50

Give reported pIC50 value for `CC(C)N(CCCNC(=O)Nc1ccc(C(C)(C)C)cc1)C[C@H]1O[C@@H](n2cc(Br)c3c(N)ncnc32)[C@H](O)[C@@H]1O`
5.05

Give the reported pIC50 for this compound. CN(CCCNC(=O)Nc1ccc(C(C)(C)C)cc1)CC1CCCN(c2ncnc3[nH]cnc23)C1 (stereo unspecified)
4.16

====

Entries and their IC50
system: NCI-H460; assay: Antiproliferative activity against human NCI-H460 cells harboring wildtype DOT1L (unknown origin) (1 to 416 residues) assessed as inhibition of cell proliferation incubated for 72 hrs by CCK-8 assay; format: functional, cell-based; conditions: NCI-H460, 72 h
Numbers only; they are read as µM.

Some compounds with known IC50 results, for comparison:
>>> result_number("CN(CCCNC(=O)Nc1ccc(C(C)(C)C)cc1)CC1CCCN(c2nc(Cl)nc3[nH]cnc23)C1 (stereo not drawn)")
23.3
>>> result_number("CN(CCCNC(=O)Nc1ccc(C(C)(C)C)cc1)CC1(O)CCN(c2nc(N)nc3[nH]cnc23)C1 (stereo not drawn)")
23.8
>>> result_number("CC(C)N(CCCNC(=O)Nc1ccc(C(C)(C)C)cc1)CC1CCCN(c2nc(Cl)nc3[nH]cnc23)C1 (stereo not drawn)")
21.8
>>> result_number("CC(C)N(CCCNC(=O)Nc1ccc(C(C)(C)C)cc1)CC1CCCN(C(=O)c2ccc[nH]c2=O)C1 (stereo not drawn)")
75.7

Here's the next entry for you.
Tell me IC50 reported for CN(CCCNC(=O)Nc1ccc(C(C)(C)C)cc1)CC1(O)CCN(c2ncnc3[nH]cc(Br)c23)C1 (stereo not drawn)
38.7

====

experiment: AUC (0 to infinity) in male Sprague-Dawley rat at 20 mg/kg, iv measured after 24 hrs by LC-MS/MS analysis; type: ADME, organism-based; settings: in vivo
PROPERTY_MEASURED: AUC(0-inf) (ng·h/mL)
Please give a number only; it is taken to be in ng·h/mL.

State its AUC(0-inf) for this molecule: CC(C)(C)c1ccc(NC(=O)NCCCN(CCCN2CCOCC2)CC2(O)CCN(c3nc(Cl)nc4sccc34)C2)cc1 (stereo unspecified)
6200

====

test system: NCI-H460; assay: Antiproliferative activity against human NCI-H460 cells harboring wildtype DOT1L (unknown origin) (1 to 416 residues) assessed as inhibition of cell proliferation incubated for 72 hrs by CCK-8 assay; assay type: functional, cell-based; settings: NCI-H460, 72 h
PROPERTY_MEASURED: pIC50
By convention, pIC50 is the negative base-10 log of a molar concentration.

Example cases with answers are listed next.
>>> result_number("CC(C)N(CCCNC(=O)Nc1ccc(C(C)(C)C)cc1)CC1(O)CCN(c2nc(N)nc3[nH]cnc23)C1 (configuration not stated)")
4.59
>>> result_number("CN(CCCNC(=O)Nc1ccc(C(C)(C)C)cc1)CC1(O)CCN(c2nc(Cl)nc3[nH]cnc23)C1 (configuration not stated)")
5.19

Give a short answer stating reported pIC50 for CC(C)N(CCCNC(=O)Nc1ccc(C(C)(C)C)cc1)CC1(O)CCN(c2nc(Cl)nc3[nH]ncc23)C1 (configuration not stated) .
5.19

Entry CC(C)N(CCCNC(=O)Nc1ccc(C(C)(C)C)cc1)CC1(O)CCN(c2nc(Cl)nc3[nH]cnc23)C1 (configuration not stated) needs its pIC50 filled in; supply it.
5.27

====

system: NCI-H460; assay: Antiproliferative activity against human NCI-H460 cells harboring DOT1L R231Q mutant assessed as inhibition of cell proliferation incubated for 72 hrs by CCK-8 assay; format: functional, cell-based; settings: NCI-H460, 72 h
PROPERTY_MEASURED: IC50

Specify IC50 for `CC(C)(C)C(=O)Nc1ccc2nc(CN3CCC(N(CCCN4CCOCC4)C[C@H]4O[C@@H](n5cnc6c(N)ncnc65)[C@H](O)[C@@H]4O)CC3)[nH]c2c1` and stop.
6.18 µM

====

assay: MRT (0 to infinity) in male Sprague-Dawley rat at 20 mg/kg, iv measured after 24 hrs by LC-MS/MS analysis; format: ADME, organism-based; details: in vivo
PROPERTY_MEASURED: MRT inf (h)
State just the number; it will be interpreted in h.

Note MRT inf for the compound shown: CC(C)(C)c1ccc(NC(=O)NCCCN(CCCN2CCOCC2)CC2(O)CCN(c3nc(Cl)nc4sccc34)C2)cc1 (stereo unspecified)
4.41

====

assay: Tmax in male Sprague-Dawley rat at 20 mg/kg, iv measured after 24 hrs by LC-MS/MS analysis; assay type: ADME, organism-based; conditions: in vivo
PROPERTY_MEASURED: Tmax

Identify the reported Tmax for the following entry. CC(C)(C)c1ccc(NC(=O)NCCCN(CCCN2CCOCC2)CC2(O)CCN(c3nc(Cl)nc4sccc34)C2)cc1 (stereo unspecified)
4.98 min

====

assay: MRT (0 to infinity) in male Sprague-Dawley rat at 20 mg/kg, ip measured after 24 hrs by LC-MS/MS analysis; type: ADME, organism-based; conditions: in vivo
PROPERTY_MEASURED: MRT inf
Express your answer as a number followed by its unit.

Read the entry CC(C)(C)c1ccc(NC(=O)NCCCN(CCCN2CCOCC2)CC2(O)CCN(c3nc(Cl)nc4sccc34)C2)cc1 (stereo unspecified) and write its reported MRT inf.
5.42 h

====

assay: AUC (0 to t) in male Sprague-Dawley rat at 20 mg/kg, iv measured after 24 hrs by LC-MS/MS analysis; format: ADME, organism-based; settings: in vivo
PROPERTY_MEASURED: AUC(0-t) at 24 h (ng·h/mL)
Entry rule: numbers only, all in ng·h/mL.

Name the recorded AUC(0-t) at 24 h of the item CC(C)(C)c1ccc(NC(=O)NCCCN(CCCN2CCOCC2)CC2(O)CCN(c3nc(Cl)nc4sccc34)C2)cc1 (stereo unspecified) in your answer.
5980

All figures here come from ChEMBL document CHEMBL5608241.
